# Tgt: Neuraminidase (Influenza A virus)
# Sequence (B4URF0 whole entry): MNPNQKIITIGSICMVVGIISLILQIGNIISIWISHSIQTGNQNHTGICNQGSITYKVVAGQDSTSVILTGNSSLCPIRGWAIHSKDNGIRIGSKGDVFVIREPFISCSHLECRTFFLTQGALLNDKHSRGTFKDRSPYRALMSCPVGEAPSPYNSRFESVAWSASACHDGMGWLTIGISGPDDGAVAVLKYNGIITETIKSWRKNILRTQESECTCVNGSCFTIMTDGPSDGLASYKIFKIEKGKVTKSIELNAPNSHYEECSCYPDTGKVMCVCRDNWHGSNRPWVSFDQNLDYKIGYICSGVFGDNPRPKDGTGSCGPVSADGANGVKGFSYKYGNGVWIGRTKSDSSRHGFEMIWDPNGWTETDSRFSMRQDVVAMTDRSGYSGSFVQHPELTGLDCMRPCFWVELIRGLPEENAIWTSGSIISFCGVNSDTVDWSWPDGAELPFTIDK
# Assay type: cell-based, Influenza A virus (A/WSN/1933(H1N1)), HEK293
Collected IC50 values appear next to each entry.

Structure | IC50 (nM)
CCOP(=O)(O)[C@@H]1C[C@@H]([C@@H](NC(C)=O)C(CC)CC)[C@H](NC(=N)N)C1 | 1
CCCCCCOP(=O)(O)C1=C[C@@H]([C@@H](NC(C)=O)C(CC)CC)[C@H](NC(=N)N)C1 | 1.5
CCC(CC)[C@H](NC(C)=O)[C@@H]1C[C@@H](P(=O)(O)O)C[C@H]1NC(=N)N | 2.9
CCCCCCOP(=O)(O)[C@@H]1C[C@@H]([C@@H](NC(C)=O)C(CC)CC)[C@H](NC(=N)N)C1 | 1.6
CCOP(=O)(O)[C@H]1C[C@@H](NC(=N)N)[C@H]([C@@H](NC(C)=O)C(CC)CC)[C@@H]1O | 0.9
CCCCCCOP(=O)(O)[C@H]1C[C@@H](NC(=N)N)[C@H]([C@@H](NC(C)=O)C(CC)CC)[C@@H]1O | 0.5
